The entries below come with measured Percent Effect values attached.
tested on: Wolbachia pipientis; test: Anti-Wolbachia Cell-Based Screen; assay type: functional; set-up: scale not given: in the data most compounds retested in dose-response had high values; details: 5 µM
Screen size: about 48,000 compounds; about 13,000 (27%) showed an effect of 50% or more. The list shows a part of the results.
I only need the number, in %, no unit after it.

As a guide, the following entries are already answered.
• CNc1nc(C(=O)N2CCC3(CCCN(CC4CC4)C3=O)C2)cs1 (stereo unspecified) = -46.01
• O=C(NCC(O)c1cccs1)c1cccc(Cl)c1 (stereo unspecified) = -18.24
• CCc1c(C(=O)N2CCC3(CCCN(CCO)C3=O)C2)csc1C (stereo unspecified) = 7.73
• Cc1nc(CN2C[C@@H]3CN(C(=O)c4ccco4)C[C@@H]3C2=O)cs1.O=C(O)C(F)(F)F = -11.8
• Cc1cc(C(=O)N2CCN[C@H](C)C2)c2ccc(F)cc2n1 = 95.19
• O=C1CCC2(CCCN(c3ncc(F)cn3)CC2)N1Cc1ccccc1 (stereo unspecified) = -5.866
• Cc1nc(CN2CCC3(C2)CN(C(=O)c2ccc[nH]2)C3)cs1 = 122.8
• CCn1c(C)nnc1CN(C)C1CCN(CCc2ccncc2)C1 (stereo unspecified) = 1.632
• Cc1nc(CN2CCOCC23CCN(c2ccc(C#N)cc2)CC3)cs1.O=C(O)C(F)(F)F = -24.99
• CC(C)n1cc2cc(NC(=O)Cn3cnnn3)ccc2n1 = 0.8884

# Percent Effect (compound: "Cc1cc(C(=O)N2C[C@H]3CCC[C@@]3(CO)C2)c2ccc(F)cc2n1" ) is -33.96

Note to self: Percent Effect recorded for "Cc1noc2ncc(S(=O)(=O)Nc3cc(CC(C)(C)C)[nH]n3)cc12" was -3.68

Sure, the documented Percent Effect for "Cc1ccc(C)c(-n2cc(CN3CCOCC3)c(-c3ccccc3)n2)c1" is 9.149
